Below: a set of entries, each annotated with reported 25 μM % Lysed cells (1 h LDH).
# Test system: SJSA-1 cells
# experimentNotes: Cell lysis by peptidomimetic macrocycles (LDH release)
# Type: cell-based
# assayConditions: 25 μM, SJSA-1, 1 h
Response body: numeric value in %, unit text excluded.

{"compound": "CC(=O)N[C@@H](C)C(=O)N[C@@H](CC(C)C)C(=O)N[C@H](C(=O)N[C@@H](Cc1ccccc1)C(=O)N[C@]1(C)CCCCCCC=CCCC[C@@](C)(C(=O)N[C@@H](CO)C(=O)N[C@@H](C)C(=O)N[C@@H](C)C(=O)N[C@@H](C)C(=O)N[C@H](C)C(N)=O)NC(=O)[C@H](CC2CCC2)NC(=O)[C@H](CCC(N)=O)NC(=O)[C@H](C)NC(=O)[C@H](Cc2c[nH]c3ccccc23)NC(=O)[C@H](Cc2ccc(O)cc2)NC(=O)[C@H](CCC(=O)O)NC1=O)[C@@H](C)O (single isomer, unassigned)", "assaySystem": "SJSA-1 cells", "25 μM % Lysed cells (1 h LDH), %": 0}
{"compound": "CC(=O)N[C@@H](CC(C)C)C(=O)N[C@H](C(=O)N[C@@H](Cc1ccccc1)C(=O)N[C@]1(C)CCCCCCC=CCCC[C@@](C)(C(=O)N[C@@H](CO)C(=O)N[C@@H](C)C(=O)N[C@@H](CO)C(N)=O)NC(=O)[C@H](CC(C)C)NC(=O)[C@H](CCC(N)=O)NC(=O)[C@H](C)NC(=O)[C@H](Cc2c[nH]c3ccccc23)NC(=O)[C@H](Cc2ccc(O)cc2)NC(=O)[C@H](C(C)C)NC1=O)[C@@H](C)O (single isomer, unassigned)", "assaySystem": "SJSA-1 cells", "25 μM % Lysed cells (1 h LDH), %": "−1"}
{"compound": "CC[C@H](C)[C@H](NC(=O)[C@H](C)NC(=O)[C@H](C)NC(=O)[C@]1(C)CCCC=CCCCCCC[C@@](C)(NC(=O)[C@H](Cc2ccccc2)NC(=O)[C@@H](NC(=O)[C@H](CC(C)C)NC(C)=O)[C@@H](C)O)C(=O)N[C@@H](CCC(=O)O)C(=O)N[C@@H](Cc2ccc(C(=O)O)cc2)C(=O)N[C@@H](Cc2c[nH]c3cc(Cl)ccc23)C(=O)N[C@@H](C)C(=O)N[C@@H](CCC(N)=O)C(=O)N[C@@H](CC2CCC2)C(=O)N1)C(=O)N[C@H](C)C(N)=O (single isomer, unassigned) [compound 335]", "assaySystem": "SJSA-1 cells", "25 μM % Lysed cells (1 h LDH), %": 0}

Now for the compound whose 25 μM % Lysed cells (1 h LDH) we want.
// assay SJSA-1 cells, entry CC(=O)N[C@@H](CC(C)C)C(=O)N[C@H](C(=O)N[C@@H](Cc1ccccc1)C(=O)N[C@]1(C)CCCCCCC=CCCC[C@@](C)(C(=O)N[C@@H](CO)C(=O)N[C@@H](C)C(=O)N[C@@H](C)C(N)=O)NC(=O)[C@H](CC(C)C)NC(=O)[C@H](CCC(N)=O)NC(=O)[C@H](C)NC(=O)[C@H](Cc2c[nH]c3ccccc23)NC(=O)[C@H](Cc2ccc(C(=O)O)cc2)NC(=O)[C@H](C)NC1=O)[C@@H](C)O (single isomer, unassigned) , 25 μM % Lysed cells (1 h LDH) value = 3

====

# System: Caspase 3
# experimentNotes: Caspase 3 detection assay in SJSA1 cells
# Format: cell-based
# assayConditions: 30 μM, SJSA1, 48 h, Caspase 3 activation over DMSO-treated cells
Bridge positions count the residues as written; N and C are the ends. Square brackets hold non-standard residues; d marks the D form. Peptide text beside a SMILES is read from it. 2Nal = N[C@@H](Cc1ccc2ccccc2c1)C(=O)O; R8 = C=CCCCCCC[C@@](C)(N)C(=O)O; Cba = N[C@@H](CC1CCC1)C(=O)O; S5 = C=CCCC[C@](C)(N)C(=O)O; Nle = CCCC[C@H](N)C(=O)O
List of caspase 30 μM values.
Response field accepts a number only; no unit should be typed.

{"molecule": "CC(=O)N[C@@H](CCC(=O)O)C(=O)N[C@H](C(=O)N[C@@H](Cc1ccccc1)C(=O)N[C@]1(C)CCCCCCC=CCCC[C@@](C)(C(=O)N[C@@H](C)C(=O)N[C@@H](C)C(=O)N[C@@H](C)C(=O)N[C@@H](C)C(=O)N[C@@H](C)C(=O)N[C@H](C)C(N)=O)NC(=O)[C@H](CC(C)C)NC(=O)[C@H](CCC(N)=O)NC(=O)[C@H](C)NC(=O)[C@H](Cc2c[nH]c3ccccc23)NC(=O)[C@H](Cc2ccc(O)cc2)NC(=O)[C@H](CCC(=O)O)NC1=O)[C@@H](C)O (single isomer, unassigned)", "caspase 30 μM": 21}

caspase 30 μM for Caspase 3 with input CC(=O)N[C@@H](CC(C)C)C(=O)N[C@H](C(=O)N[C@@H](Cc1ccccc1)C(=O)N[C@]1(C)CCCCCC/C=C/CCC[C@@](C)(C(=O)N[C@@H](C)C(=O)N[C@@H](C)C(=O)N[C@@H](C)C(=O)N[C@@H](C)C(=O)N[C@@H](C)C(=O)N[C@H](C)C(N)=O)NC(=O)[C@H](CC(C)C)NC(=O)[C@H](CCC(N)=O)NC(=O)[C@H](C)NC(=O)[C@H](Cc2c[nH]c3ccccc23)NC(=O)[C@H](Cc2ccc(O)cc2)NC(=O)[C@H](CCC(=O)O)NC1=O)[C@@H](C)O equals 30.5

Tested on Caspase 3: CC(=O)N[C@@H](CCC(=O)O)C(=O)N[C@H](C(=O)N[C@@H](Cc1ccccc1)C(=O)N[C@]1(C)CCCCCCC=CCCC[C@@](C)(C(=O)N[C@@H](CO)C(=O)N[C@@H](C)C(=O)N[C@@H](C)C(N)=O)NC(=O)[C@H](CC(C)C)NC(=O)[C@H](CCC(N)=O)NC(=O)[C@H](C)NC(=O)[C@H](Cc2c[nH]c3ccccc23)NC(=O)[C@H](Cc2ccc(O)cc2)NC(=O)[C@H](CCC(=O)O)NC1=O)[C@@H](C)O [compound 161] (Ac-ETF[R8]EYWAQL[S5]SAA-NH2; staple 4-11) . Observed caspase 30 μM: 22

The molecule CC(=O)N[C@@H](CC(C)C)C(=O)N[C@H](C(=O)N[C@@H](Cc1ccccc1)C(=O)N[C@]1(C)CCCCCCC=CCCC[C@@](C)(C(=O)N[C@@H](CO)C(=O)N[C@@H](C)C(=O)N[C@@H](C)C(N)=O)NC(=O)[C@H](CC2CCC2)NC(=O)[C@H](CCC(N)=O)NC(=O)[C@H](C)NC(=O)[C@H](Cc2ccc3ccccc3c2)NC(=O)[C@H](Cc2ccc(O)cc2)NC(=O)[C@H](CCC(=O)O)NC1=O)[C@@H](C)O [compound 254] (Ac-LTF[R8]EY[2Nal]AQ[Cba][S5]SAA-NH2; staple 4-11) , when measured on Caspase 3, yielded caspase 30 μM of 22

// assay Caspase 3, entry CC(=O)N[C@@H](CC(C)C)C(=O)N[C@H](C(=O)N[C@@H](Cc1ccc(F)c(F)c1)C(=O)N[C@]1(C)CCCCCCC=CCCC[C@@](C)(C(=O)N[C@@H](CO)C(=O)N[C@@H](C)C(=O)N[C@@H](C)C(N)=O)NC(=O)[C@H](CC(C)C)NC(=O)[C@H](CCC(N)=O)NC(=O)[C@H](C)NC(=O)[C@H](Cc2c[nH]c3ccccc23)NC(=O)[C@H](Cc2ccc(O)cc2)NC(=O)[C@H](CCC(=O)O)NC1=O)[C@@H](C)O (single isomer, unassigned) , caspase 30 μM value = 16.33

# value of caspase 30 μM, Caspase 3, item CC[C@H](C)[C@H](NC(=O)[C@H](C)NC(=O)[C@H](C)NC(=O)[C@]1(C)CCCC=CCCCCCC[C@@](C)(NC(=O)[C@H](Cc2ccccc2)NC(=O)[C@@H](NC(=O)[C@H](CC(C)C)NC(C)=O)[C@@H](C)O)C(=O)N[C@@H](CCC(=O)O)C(=O)N[C@@H](Cc2ccc(O)cc2)C(=O)N[C@@H](Cc2c[nH]c3ccccc23)C(=O)N[C@@H](C)C(=O)N[C@@H](CCC(N)=O)C(=O)N[C@@H](CC2CCC2)C(=O)N1)C(=O)N[C@H](C)C(N)=O [compound 247] (Ac-LTF[R8]EYWAQ[Cba][S5]AAI[dA]-NH2; staple 4-11) = 24

The molecule CC[C@H](C)[C@H](NC(=O)[C@H](C)NC(=O)[C@H](C)NC(=O)[C@]1(C)CCCC=CCCCCCC[C@@](C)(NC(=O)[C@H](Cc2ccccc2)NC(=O)[C@@H](NC(=O)[C@H](CC(C)C)NC(C)=O)[C@@H](C)O)C(=O)N[C@@H](C)C(=O)N[C@@H](Cc2ccc(O)cc2)C(=O)N[C@@H](Cc2c[nH]c3ccccc23)C(=O)N[C@@H](C)C(=O)N[C@@H](CCC(N)=O)C(=O)N[C@@H](CC(C)C)C(=O)N1)C(=O)N[C@@H](C)C(N)=O (single isomer, unassigned) , tested on Caspase 3, showed caspase 30 μM of 34

Readout caspase 30 μM for CCCC[C@H](NC(=O)[C@H](C)NC(=O)[C@H](C)NC(=O)[C@]1(C)CCCC=CCCCCCC[C@@](C)(NC(=O)[C@H](Cc2ccccc2)NC(=O)[C@@H](NC(=O)[C@H](CC(C)C)NC(C)=O)[C@@H](C)O)C(=O)N[C@@H](CCC(=O)O)C(=O)N[C@@H](Cc2ccc(O)cc2)C(=O)N[C@@H](Cc2c[nH]c3ccccc23)C(=O)N[C@@H](C)C(=O)N[C@@H](CCC(N)=O)C(=O)N[C@@H](CC2CCC2)C(=O)N1)C(=O)N[C@@H](C)C(N)=O [compound 238] (Ac-LTF[R8]EYWAQ[Cba][S5]AA[Nle]A-NH2; staple 4-11) , test system Caspase 3, was 21
